test system: HCC 2998; experiment: NCI tumour cell line growth inhibition, 48 h
Active and inactive are the calls of the source. Cut-off read from the data, not from the text of the source: active = GI50 up to about 1.1 µM and inactive = higher.
Pick one: active, inactive

Check out these entries, answers already filled in.
| molecule | assignedLabel |
| --- | --- |
| CC(=O)O[C@H]1[C@@H](N2CCCCC2)C[C@H]2[C@@H]3CC=C4C[C@@H](N5CCCC5)CC[C@]4(C)[C@H]3CC[C@@]21C | inactive |
| COc1ccc(/N=N/c2c(N)nn(C)c2N)cc1 | active |
| CC1CC2C3CCC4=CC(=O)C=CC4(C)C3(F)C(O)CC2(C)C1(O)C(=O)COP(=O)(O)O (stereo unspecified) | inactive |
| CC1=C(CO)C(=O)O[C@@H]([C@@H](C)[C@H]2CC[C@H]3[C@@H]4C[C@H]5O[C@]56[C@@H](O)C=CC(=O)[C@]6(C)[C@H]4CC[C@]23C)C1 | active |
| CC(=O)Nc1ccc(-c2nc3ccccc3s2)cc1O | inactive |
| O=c1c2ccccc2oc2nccnc12 | inactive |
| CC(=S)NC=C(C(N)=O)C(N)=O | inactive |
| O=C(O)C(Br)Cc1ccc2c(c1)OCO2 (stereo unspecified) | inactive |
| COc1cc(CNc2nc3c(NC(C)=O)cc(C(F)(F)F)cc3nc2-c2ccccc2)cc(OC)c1OC | inactive |
| COC(=O)[C@@]12CC3CN(Cc4c1[nH]c1ccccc41)C2CC3=O | inactive |

Ask: State the result this test recorded for CC(=O)/N=C1\NC(=O)/C(=C/c2ccccc2Cl)N1C .
Reply: inactive

Ask: State the result this test recorded for Oc1nc(S)nc2nc3c4cccnc4c4ccccc4c3nc12 .
Reply: inactive

Ask: State the result this test recorded for CC(=O)O[C@H]1CC2C=CC3C(CCC31)O2 (stereo partly specified) .
Reply: inactive

Ask: State the result this test recorded for CS(=O)(=O)c1c(N)c2nc(Cl)cn2c2nc3ccccc3nc12 .
Reply: inactive

Ask: State the result this test recorded for O=C(c1ccco1)N(C(=O)N1CCN(c2ccccc2)CC1)S(=O)(=O)c1ccccc1 .
Reply: inactive

Ask: State the result this test recorded for Nc1ccn(C2OC(CO)C(O)C2O)c(=O)c1 (stereo unspecified) .
Reply: inactive

Ask: State the result this test recorded for COc1ccc(C(c2c(O)c3ccccc3n(-c3ccccc3)c2=O)c2c(O)c3ccccc3n(-c3ccccc3)c2=O)cc1 .
Reply: inactive

Ask: State the result this test recorded for Cc1ccccc1[P+](C)(c1ccccc1C)c1ccccc1C .
Reply: inactive

Ask: State the result this test recorded for O=C(CC1(O)C(=O)Nc2c(Cl)ccc(Cl)c21)c1ccc(Cl)cc1Cl (stereo unspecified) .
Reply: inactive

Ask: State the result this test recorded for C[N+](C)(C)CC1CCCCCCCCCCC1=O (stereo unspecified) .
Reply: inactive

Ask: State the result this test recorded for Cc1nn(C(=O)Cc2ccccc2)c2c1C(c1ccc(O)cc1)SC(=N)N2 (stereo unspecified) .
Reply: inactive

Ask: State the result this test recorded for O=C1C2C(C(=O)N1Cc1ccccc1)N(Cc1ccccc1)C(=O)N2Cc1ccccc1 (stereo unspecified) .
Reply: inactive

Ask: State the result this test recorded for COc1ccc2[nH]c3c(c2c1)[C@H](C)C[C@@H]1C(=O)N(c2ccccc2)C(=O)[C@H]31 .
Reply: inactive

Ask: State the result this test recorded for CC(=O)C1=CN=C2C(=O)N(c3ccccc3)N(C)C12C (stereo unspecified) .
Reply: inactive

Ask: State the result this test recorded for COc1ccc(C(OCC2OC(n3cnc4c(=O)n(Cc5ccccc5[N+](=O)[O-])nnc43)C(O)C2O)(c2ccccc2)c2ccc(OC)cc2)cc1 (stereo unspecified) .
Reply: inactive

Ask: State the result this test recorded for COc1ccc(C(=O)Cn2c(C(=O)/C=C/c3ccco3)nc3ccccc32)cc1 .
Reply: inactive

Ask: State the result this test recorded for COc1ccc(S(=O)(=O)O)cc1-n1nc(C(=O)Nc2ccccc2)n[n+]1-c1cc(S(=O)(=O)[O-])ccc1OC .
Reply: inactive

---

tested on: M19-MEL; assay: NCI tumour cell line growth inhibition, 48 h
Activity calls are given as the source filed them. Cut-off read from the data, not from the text of the source: active = GI50 up to about 1.1 µM and inactive = higher.
measuredQuantity: GI50

| compound | GI50 |
| --- | --- |
| CCN(CC)CC(=O)/C=C/c1ccc(C)cc1 | 17.6 µM (inactive) |
| O=C1Sc2ccccc2C(=O)N2CSCC12 (configuration not stated) | > 100 µM (inactive) |
| COC(=O)/C(=N\Nc1nc(S)nn1N)C(C#N)c1ccccc1 (configuration not stated) | > 100 µM (inactive) |
| CCc1cccc(C(C)C)c1C1C(=O)C(=O)N(c2nc3ccccc3s2)C(=O)C1=O | > 100 µM (inactive) |
| COC(=O)[C@@]1(C)C(=O)CC[C@@H]1C=O | > 100 µM (inactive) |
| O=C(O)c1ccccc1[Se][Se]c1ccccc1C(=O)O | 41.4 µM (inactive) |
| CC1=C(CO)C(=O)O[C@@H]([C@@H](C)[C@H]2CC[C@H]3[C@@H]4C[C@H]5O[C@]56[C@@H](O)C=CC(=O)[C@]6(C)[C@H]4CC[C@]23C)C1 [WITHAFERIN A] | 1.5 µM (inactive) |
| CC(=O)Oc1ccc(O)c2c1CCCC2 | 13.4 µM (inactive) |
| CC(C)C1C(=O)NC(CO)Cc2c[nH]c3c(C(c4c[nH]c5ccccc45)C(O)CO)ccc(c23)N1C (configuration not stated) | > 100 µM (inactive) |
| CCCC(C)NC1=C(NC(C)=O)C(=O)c2ccccc2C1=O (configuration not stated) | 62.7 µM (inactive) |

Ask: Would you mind telling me what GI50 value was observed for COC(=O)C1=C(C)N2CCSC2(C)C(C(=O)OC)C1c1cccc(Cl)c1 (configuration not stated) ?
Reply: 16 µM (inactive)

Ask: Would you mind telling me what GI50 value was observed for COc1ccc(CC#C/C=C/C(=O)NCC(C)C)cc1 ?
Reply: > 100 µM (inactive)

Ask: Would you mind telling me what GI50 value was observed for C[C@H](N)C(=O)N[C@@H]1[C@H]2C(=C(O)C[C@@H](O)[C@@H]2O)C(=O)O[C@@H]1C ?
Reply: > 100 µM (inactive)

Ask: Would you mind telling me what GI50 value was observed for CCc1cccc(C)c1NC(=O)CCc1nnc(SC)o1 ?
Reply: > 100 µM (inactive)

---

test system: HT-29; assay: NCI tumour cell line growth inhibition, 48 h
Active and inactive are the calls of the source. Rule as the data show it: active = GI50 up to about 1.1 µM and inactive = higher.
measuredQuantity: GI50

Ask: Would you mind telling me what GI50 value was observed for Cc1ccc(C(=O)N/N=C(\N=N\c2cccc([N+](=O)[O-])c2)c2ccc(N(C)C)cc2)cc1 ?
Reply: 46.5 µM (inactive)

Ask: Would you mind telling me what GI50 value was observed for COc1ccc(-c2nc(N)c(C#N)c3c2CCSc2ccc(C)cc2-3)cc1OC ?
Reply: 14.2 µM (inactive)

Ask: Would you mind telling me what GI50 value was observed for COC(=O)[C@@]1(C)C(=O)CC[C@@H]1C=O ?
Reply: > 100 µM (inactive)

Ask: Would you mind telling me what GI50 value was observed for O=C1N=C(Nc2ccccc2Cl)SC1C(=O)Nc1ccc([N+](=O)[O-])cc1[N+](=O)[O-] (centres undefined) ?
Reply: > 100 µM (inactive)

Ask: Would you mind telling me what GI50 value was observed for COC1=C(C)C(=O)C2=C(C1=O)[C@@H]1[C@@H]3Cc4c(OC(=O)CO)c(C)c(OC)c(O)c4[C@H](CNC(=O)C(C)=O)N3[C@@H](C#N)[C@H](C2)N1C ?
Reply: 0.0182 µM (active)

Ask: Would you mind telling me what GI50 value was observed for CCCCCC(/C=C/[C@@H]1[C@H]2CC(=O)O[C@H]2C[C@H]1N1CCOCC1)OC1CCCO1 (some centres undefined) ?
Reply: > 100 µM (inactive)

Ask: Would you mind telling me what GI50 value was observed for BrC(/C=N/Nc1nnc(-c2ccccc2)c(-c2ccccc2)n1)C(Br)c1ccccc1 (centres undefined) ?
Reply: 34 µM (inactive)

Ask: Would you mind telling me what GI50 value was observed for CO[C@H]1CC[C@]2(C)C3=CC[C@@]4(C)C(CC[C@@H]4C(C)CC[C@@H](C)C(C)C)C(=CCC2C1)O3 (some centres undefined) ?
Reply: > 25 µM (inactive)

Ask: Would you mind telling me what GI50 value was observed for C=CC(CBr)CCC(Br)C(C)(C)Br (centres undefined) ?
Reply: > 10 µM (inactive)

---

system: SK-OV-3; experiment: NCI tumour cell line growth inhibition, 48 h
Calls of active or inactive are those of the source. Rule as the data show it: active = GI50 up to about 1.1 µM and inactive = higher.
Pick one: class 1 for active, class 0 for inactive

| molecule | assignedLabel |
| --- | --- |
| COC(=O)CCC(=O)NC1=C(Nc2ccccc2)C(=O)c2ccccc2C1=O | class 0 |
| Cc1cc2c(cc1-c1cc3c(cc1C)C(C(C)C)=C(O)C(=O)/C3=C\NCC1CCCN3CCCCC13)/C(=C/NCC1CCCN3CCCCC13)C(=O)C(O)=C2C(C)C (centres undefined) | class 0 |
| O=C1N=C(Nc2ccccc2Cl)SC1C(=O)Nc1ccc([N+](=O)[O-])cc1[N+](=O)[O-] (centres undefined) | class 0 |
| CN(C)CCNCCCNc1c2ccccc2nc2cccc([N+](=O)[O-])c12 | class 1 |
| COc1cc(CNc2nc3c(NC(C)=O)cc(C(F)(F)F)cc3nc2-c2ccccc2)cc(OC)c1OC | class 0 |
| CC[N+]1(C)CCC(O)(c2ccccc2)C(C(=O)c2ccccc2)C1 (centres undefined) | class 0 |
| CN(C)/N=C(/CC(O)(C(F)(F)F)C(F)(F)F)c1ccc([N+](=O)[O-])cc1 | class 0 |
| CC(=S)NC=C(C(N)=O)C(N)=O | class 0 |

Please find the next molecule below.
Ask: State the result this test recorded for C1COCCOP2(N3CC3)=NP(N3CC3)(=NP(N3CC3)(N3CC3)=N2)OCCOCCO1 (centres undefined) .
Reply: class 0
